Test system: Staphylococcus aureus UC-76
METHOD_DESCRIPTION: In vitro antibacterial activity, microtitration dilution method (MIC)
Assay type: cell-based
CONDITION_SET: UC76; Staphylococcus aureus UC-76, microtitration dilution; read-out: Minimal Inhibitory Concentration MIC
Record form. Attribute: MIC. Fill in for each entry.
One number for each entry, in µg/mL.

COMPOUND	REPORTED
Cc1c(F)c(N2CCNC(C)C2)c(F)c2c1c(=O)c(C(=O)O)cn2C1CC1 (centres unmarked)	0.013
Cc1c(F)c(N2CCC(N)C2)c(F)c2c1c(=O)c(C(=O)O)cn2C1CC1 (centres unmarked)	0.003
Cc1c(F)c(N2CCNC(C)C2)cc2c1c(=O)c(C(=O)O)cn2-c1ccc(F)cc1F (centres unmarked) [Ex. 17a]	0.025
Cc1c(F)c(N2CC[C@@H]([C@H](C)N)C2)nc2c1c(=O)c(C(=O)O)cn2-c1ccc(F)cc1F	0.003

Continue with the next compound.
QUERY: Provide MIC value for the following compound: Cc1c(F)c(N2CCC(N)C2)cc2c1c(=O)c(C(=O)O)cn2C1CC1 (centres unmarked)
RESULT: 0.025
